Molecular target: Recombinant human LTC4 synthase (Homo sapiens, UniProt Q16873)
Construct: made in house; host or cells: Pichia pastoris
Sequence (Q16873 1-150): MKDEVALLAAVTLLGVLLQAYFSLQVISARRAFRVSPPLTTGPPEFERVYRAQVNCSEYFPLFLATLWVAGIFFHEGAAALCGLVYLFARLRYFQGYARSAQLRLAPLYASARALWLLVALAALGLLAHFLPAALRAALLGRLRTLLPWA
Test: LTC4 synthase in vitro assay (HTRF detection of LTC4)
Format: biochemical
Conditions: total concentration of title compound in the assay 10 μM; HTRF method
readout-label: inhibition at 10 µM (%)

> print(dat)
                               input.smiles  unit.info  numeric.result
1  O=C(Nc1ccc(Oc2ccc(NC(=O)c3ccc([N+](=O)[O-])cc3)c(C(=O)O)c2)cc1C(=O)O)c1ccccc1          %              99
2  CC(C)(C)c1ccc(C(=O)Nc2ccc(Oc3ccc(NC(=O)c4cc(Cl)cnc4Cl)c(C(=O)O)c3)cc2)cc1          %              98
3  O=C(O)c1cc(Oc2cccc(NCc3cccc(Cl)c3F)c2)ccc1NS(=O)(=O)c1ccc(Cl)cc1Cl          %              98
4  CCOc1c(Cl)cc(C(F)(F)F)cc1C(=O)Nc1ccc(Oc2ccc(NC(=O)c3ccc(OC(C)C)cc3)c(C(=O)O)c2)cc1CC(=O)O          %             100
5  CCCCOc1ccc(S(=O)(=O)Nc2ccc(Oc3ccc(NC(=O)c4ccccc4)cc3)cc2CCC(=O)O)cc1          %              99
6  COc1ccc(S(=O)(=O)N(C)c2ccc(Oc3ccc(NC(=O)c4ccccc4Cl)c(C(=O)O)c3)cc2)cc1          %              95
7  O=C(O)c1cc(Oc2ccc(Nc3ccc(F)c(F)c3)c(C(=O)O)c2)ccc1Nc1ccc(F)c(F)c1          %             100

====

Target: Recombinant human LTC4 synthase (Homo sapiens)
Construct: made in house; host or cells: Pichia pastoris
Sequence (Q16873 1-150): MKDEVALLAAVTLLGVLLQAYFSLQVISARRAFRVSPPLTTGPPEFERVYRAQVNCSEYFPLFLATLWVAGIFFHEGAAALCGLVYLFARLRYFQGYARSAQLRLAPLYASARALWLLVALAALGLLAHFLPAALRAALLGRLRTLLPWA
Test: LTC4 synthase in vitro assay (HTRF detection of LTC4)
Format: biochemical
Conditions: total concentration of title compound in the assay 10 μM; HTRF method
Reported % inh. by item:
Value expressed in %; do not type the unit.

Write % inh. of O=C(Nc1ccc(Oc2cccc(S(=O)(=O)Nc3ccc(F)c(F)c3)c2)cc1C(=O)O)c1ccc(Cl)cc1Cl ; system used: Recombinant human LTC4 synthase (Homo sapiens) 100

Write % inh. of COc1ccc(C(=O)Nc2ccc(Oc3ccc(N(C)C(=O)c4ccc(C(C)(C)C)cc4)cc3)cc2C(=O)O)cc1 ; system used: Recombinant human LTC4 synthase (Homo sapiens) 96

Write % inh. of CCCCc1ccc(C(=O)Nc2ccc(Oc3ccc(NC(=O)c4ccc(Cl)cc4Cl)c(CC(=O)O)c3)cc2C(=O)O)cc1 ; system used: Recombinant human LTC4 synthase (Homo sapiens) 99

Write % inh. of CCCCc1ccc(C(=O)Nc2cccc(Oc3ccc(NC(=O)c4ccc(C(F)(F)F)cc4F)c(C(=O)O)c3)c2)cc1 ; system used: Recombinant human LTC4 synthase (Homo sapiens) 95

====

Molecular target: Recombinant human LTC4 synthase (Homo sapiens, UniProt Q16873)
Construct: made in house; host or cells: Pichia pastoris
Assay: LTC4 synthase in vitro assay (HTRF detection of LTC4)
Format: biochemical
Settings: total concentration of title compound in the assay 10 μM; HTRF method
Procedure: Alternatively HTRF detection of LTC4 can be used: In the assay, LTC4 synthase catalyses the reaction where the substrate LTA4 is converted to LTC4. […] The following is added chronologically to each well: • 1. […] 10 μl of the incubation mixture is analysed using homogeneous time resolved fluorescent (HTRF) detection.
readout-label: inhibition at 10 µM (%)

> print(dat)
                               input.smiles  numeric.result
1  CCCCc1ccc(C(=O)Nc2ccc(Oc3ccc(NC(=O)c4ccc(C(F)(F)F)cc4F)cc3)cc2CC(=O)O)cc1              79
2  O=C(O)c1cc(Oc2ccc(Nc3ccc4occc4c3)c(C(=O)O)c2)ccc1Nc1ccc(F)c(F)c1             100
3  CCCCOc1ccc(S(=O)(=O)Nc2ccc(Oc3ccc(N(C)C(=O)c4ccccc4)c(C(=O)O)c3)cc2)cc1              89
4  CCCCc1ccc(C(=O)Nc2ccc(Oc3ccc(NC(=O)c4cc(OC)cc(OC)c4)cc3)cc2C(=O)O)cc1              88
5  O=C(Cc1cccc(Oc2ccc(Nc3ccc(Cl)cc3)c(C(=O)O)c2)c1)NS(=O)(=O)c1ccc(F)c(F)c1              93
6  O=C(Nc1ccc(Sc2ccc(NS(=O)(=O)c3ccc(Cl)cc3F)c(C(=O)O)c2)cc1)c1ccc(C(F)(F)F)cc1             100

(A) CCCCOc1ccc(S(=O)(=O)Nc2ccc(Oc3ccc(NC(=O)c4ccccc4)cc3)cc2CC(=O)O)cc1
(B) O=C(Nc1ccc(Oc2ccc([N+](=O)[O-])c(C(=O)O)c2)cc1C(=O)O)c1ccccc1
// compare measured inhibition at 10 µM between A and B ; output the lower one Your answer should be the label attached to the chosen record. B

====

Target: Recombinant human LTC4 synthase (Homo sapiens)
Construct: made in house; host or cells: Pichia pastoris
Assay: LTC4 synthase in vitro assay (HTRF detection of LTC4)
Format: biochemical
Settings: total concentration of title compound in the assay 10 μM; HTRF method
readout-label: % inh. (%)
Value expressed in %; do not type the unit.

As a guide, the following entries are already answered.
> print(dat)
                                   molecule  numeric.result
1  O=C(Nc1ccc(Oc2ccc(NC(=O)c3cc(Cl)ccc3O)cc2)cc1C(=O)O)c1ccc(C(F)(F)F)cc1 [8:3]              96
2  CC(C)(C)c1ccc(C(=O)Nc2ccc(Oc3ccc(NC(=O)c4ccccc4Cl)c(C(=O)O)c3)cc2)cc1 [Example 8:15]              98
3  CN(C)c1ccc(C(=O)Nc2ccc(Oc3ccc(NC(=O)c4ccc(C(F)(F)F)cc4)c(C(=O)O)c3)cc2)cc1.Cl [8:6]              97

Proceed to the following item.
Answer with the recorded % inh. of CCCCOc1ccc(S(=O)(=O)Nc2ccc(Oc3cccc(CC(=O)NS(=O)(=O)c4ccc(F)c(F)c4)c3)cc2C(=O)OC(C)(C)C)cc1 [26:3] only. 95

====

Target: Recombinant human LTC4 synthase (Homo sapiens)
Construct: made in house; host or cells: Pichia pastoris
Assay: LTC4 synthase in vitro assay (HTRF detection of LTC4)
Format: biochemical
Details: total concentration of title compound in the assay 10 μM; HTRF method
Reported % inh. by item:
Value expressed in %; do not type the unit.

> print(dat)
                                   compound  readout.label  numeric.result
1  CCCCOc1ccc(S(=O)(=O)Nc2ccc(Oc3ccc(Nc4ccc(F)c(F)c4)cc3)cc2-c2nnn[nH]2)cc1 [Example 32:3]         % inh.              98
2  CCCCOc1ccc(S(=O)(=O)Nc2ccc(Oc3cccc(S(=O)(=O)Nc4ccc(F)c(F)c4)c3)cc2C(=O)O)cc1 [19:2]         % inh.             100
3  CCCCc1ccc(C(=O)Nc2ccc(Oc3ccc(Nc4ccc(F)cc4)cc3)cc2C(=O)O)cc1 [12:2]         % inh.              94

Proceed to the following item.
Answer with the recorded % inh. of CCCCc1ccc(C(=O)Nc2ccc(Oc3ccc(NC(=O)c4ccc(F)c(Cl)c4)c(C(=O)O)c3)cc2C(=O)O)cc1 [2:7] only. 100

====

Molecular target: Recombinant human LTC4 synthase (Homo sapiens)
Construct: made in house; host or cells: Pichia pastoris
Assay: LTC4 synthase in vitro assay (HTRF detection of LTC4)
Type: biochemical
Conditions: total concentration of title compound in the assay 10 μM; HTRF method
readout-label: inhibition at 10 µM (%)

> print(dat)
                                input.smiles  numeric.result
 1  CCCCOc1ccc(S(=O)(=O)Nc2ccc(Oc3ccc(S(=O)(=O)Nc4ccc(Cl)cc4)cc3)cc2C(=O)O)cc1             100
 2  CC(C)Oc1ccc(C(=O)Nc2ccc(Oc3ccc(NC(=O)c4ccccc4)cc3)cc2/C=C/C(=O)O)cc1              72
 3  CCCCc1ccc(S(=O)(=O)Nc2ccc(Oc3ccc(NC(=O)c4ccc(C(F)(F)F)cc4)c(C(=O)O)c3)cc2)cc1              99
 4  CCCCOc1ccc(S(=O)(=O)Nc2ccc(Oc3cccc(CC(=O)NS(=O)(=O)c4cccc(Cl)c4F)c3)cc2C(=O)O)cc1              99
 5  COc1ccc(S(=O)(=O)N(C)c2ccc(Oc3ccc(NC(=O)c4cccc(Cl)c4)c(C(=O)O)c3)cc2)cc1             100
 6  O=C(NS(=O)(=O)c1ccc(F)cc1)c1cccc(Oc2ccc(Nc3ccc(Cl)cc3)c(C(=O)O)c2)c1              96
 7  CN(c1cc(Oc2ccc(NS(=O)(=O)c3cccc(Cl)c3Cl)cc2)cc(C(=O)O)c1)c1ccc(F)c(F)c1              97
 8  COc1ccc(S(=O)(=O)N(C)c2ccc(Oc3ccc(NC(=O)c4cc(Cl)cnc4Cl)c(C(=O)O)c3)cc2)cc1              96
 9  CCCCN(c1ccc(F)c(F)c1)c1ccc(Oc2ccc(Nc3ccc(F)c(F)c3)c(C(=O)O)c2)cc1C(=O)O              97
10  CCCCc1ccc(C(=O)Nc2cccc(Oc3ccc(NC(=O)c4ccccc4OC)c(C(=O)O)c3)c2)cc1              95
11  O=C(Nc1ccc(Oc2ccc(S(=O)(=O)Nc3ccc(F)c(F)c3)cc2)cc1C(=O)O)c1ccc(Cl)cc1Cl             100
12  O=C(O)c1cc(Oc2ccc(S(=O)(=O)Nc3ccc(Cl)cc3)cc2)ccc1Nc1ccc(F)c(F)c1             100
13  O=C(O)Cc1cc(Oc2ccc(NC(=O)c3ccc(C(F)(F)F)cc3F)cc2)ccc1NC(=O)c1cccc(Cl)c1              96
